# Subject of test: T1, human GIP receptor (human, UniProt P48546 22-466)
# T1 sequence (looked up): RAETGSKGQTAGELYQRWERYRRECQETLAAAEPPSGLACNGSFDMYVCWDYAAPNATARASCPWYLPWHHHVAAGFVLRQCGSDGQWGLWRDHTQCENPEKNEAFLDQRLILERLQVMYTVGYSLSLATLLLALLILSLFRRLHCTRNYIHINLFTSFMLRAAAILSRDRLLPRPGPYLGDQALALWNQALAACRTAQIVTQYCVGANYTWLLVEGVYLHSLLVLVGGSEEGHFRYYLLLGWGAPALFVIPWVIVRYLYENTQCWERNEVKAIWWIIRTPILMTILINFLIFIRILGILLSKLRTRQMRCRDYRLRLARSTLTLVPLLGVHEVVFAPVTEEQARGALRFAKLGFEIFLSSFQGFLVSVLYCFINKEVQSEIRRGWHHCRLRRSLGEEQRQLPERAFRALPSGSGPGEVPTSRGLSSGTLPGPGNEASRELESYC
# Assay protocol: cell-based or functional assay
Starred links: 1 amine or outer side, 2 acyl side, 3 side chain; linkers in the order of their positions; H or OH if unused. Non-standard residues stand in square brackets, D forms with d. Groups on a side chain read outwards from the residue. No end group written: not given here. *: point of attachment. C18 diacid = O=C(O)CCCCCCCCCCCCCCCCC(=O)*; C16 diacid = O=C(O)CCCCCCCCCCCCCCC(=O)*; γGlu = O=C(O)[C@H](CCC(=O)[*:2])N[*:1]; εLys = N[C@@H](CCCCN[*:1])C(=O)[*:2]; AEEA = NCCOCCOCC(=O)O; Aib = CC(C)(N)C(=O)O
Observed property: hGIPR, CRE Luc 0% HSA EC50 (pM)

INSERT INTO results (binder, observed_property, endpoint_result) VALUES
  ('Y[Aib]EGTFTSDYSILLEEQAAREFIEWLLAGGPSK([AEEA-AEEA-γGlu-C18 diacid])GAPPPS-OH [Compound No. 45]', 'hGIPR, CRE Luc 0% HSA EC50 (pM)', 3.8),
  ('Y[Aib]EGTFTSDYSILLEK([AEEA-AEEA-γGlu-C18 diacid])QAAREFINWLLAGGPSSGAPPPS-OH [Compound No. 35]', 'hGIPR, CRE Luc 0% HSA EC50 (pM)', 5.2),
  ('Y[Aib]EGTFTSDYSILLEEQAAREFIEWLLAGGPSKGAPPPS-OH (not fully specified (residue 33)) [Compound No. 47]', 'hGIPR, CRE Luc 0% HSA EC50 (pM)', 3.1),
  ('Y[Aib]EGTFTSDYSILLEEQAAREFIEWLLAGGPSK([εLys-εLys-γGlu-C16 diacid])GAPPPS-OH [Compound No. 46]', 'hGIPR, CRE Luc 0% HSA EC50 (pM)', 1.8);

All values here come from patent US20230272029A1.
